Data provenance is ChEMBL document CHEMBL3286391.

Organism: Sus scrofa
Measurement Protocol: Inhibition of porcine alpha/beta tubulin polymerization at 10 uM after 1 hr by spectrophotometric analysis
The source made the active and inactive calls. The calls are words filed in the database; no cut-off is given here.
A correct response names exactly one class from active, inactive

Worked examples follow.
[[record]]
smiles_input = "CNC(=O)c1ccc(-c2ccc(CC(=O)NCc3ccco3)cc2)cc1"
class_assignment = "active"

[[record]]
smiles_input = "O=C(Cc1ccc(-c2ccccc2)cc1)NCc1ccco1"
class_assignment = "active"

[[record]]
smiles_input = "COC(=O)Nc1nc2cc(C(=O)c3cccs3)ccc2[nH]1"
class_assignment = "active"

[[record]]
smiles_input = "O=C(Cc1ccc(-c2ccccc2)cc1)NCc1cccc(Br)c1"
class_assignment = "inactive"


Prompt: Entry N#Cc1ccc(-c2ccc(CC(=O)NCc3ccco3)cc2)cc1 : call = ?
Completion: active
